Each record here notes measured polymerase ribozyme fitness (log ratio).
B1: TPR 5TU (parent)
chain: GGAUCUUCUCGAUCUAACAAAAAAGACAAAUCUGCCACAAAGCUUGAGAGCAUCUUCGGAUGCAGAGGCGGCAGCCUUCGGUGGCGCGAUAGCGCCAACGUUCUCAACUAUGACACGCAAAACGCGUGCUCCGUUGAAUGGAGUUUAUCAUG

Variants of: B1
measurement.notes: polymerase ribozyme fitness, log enrichment relative to wild type (log ratio); higher = more active; in vitro selection for triplet polymerase activity
Variants at the floor of the assay were thinned out.

Please review the following examples before continuing.
>>> readout_value("C69G")
-1.51
>>> readout_value("G94C A97U A150G")
-1.52
>>> readout_value("A39U A60U G81A C85A C93U")
"≤ -4.2"
>>> readout_value("A24G A66G C85A A91U U127C G133A U134A")
"≤ -4.2"
>>> readout_value("A40C G50U U148A")
"≤ -4.2"
>>> readout_value("A40C G50A C95U U148C")
"≤ -4.2"
>>> readout_value("C85G U102G C129U A150C")
"≤ -4.2"
>>> readout_value("G58C A97G A98U U145C")
-0.616
>>> readout_value("C14A A37U A52G G83A G84A A115U")
"≤ -4.2"
>>> readout_value("C99G C118U U148A")
"≤ -4.2"

Attention now shifts to the item below.
If you can, please state the reported polymerase ribozyme fitness (log ratio) value of C63G C95A A110G A122U .
-3.22

Where do these numbers come from? They come from the RNAGym collection of RNA variant scans (doi:10.1073/pnas.2313332121).
